testTarget: T1, human CD47-Fc (human, UniProt Q08722 19-139)
T1 construct: also called hCD47; human CD47-Fc protein; not shown: Fc part
T1 sequence (Q08722 19-139 limits assumed): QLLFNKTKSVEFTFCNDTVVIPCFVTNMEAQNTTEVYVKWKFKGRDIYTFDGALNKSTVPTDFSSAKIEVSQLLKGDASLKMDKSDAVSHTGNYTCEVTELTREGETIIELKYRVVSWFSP
protocol: HTRF epitope competition; competitor Tb-labelled h5F9G4 IgG1 on biotinylated human CD47-Fc
Overview of recorded IC50 for various binders
resultType: IC50

{"binder": "VH1.8/VL1.1, human IgG1null (antibody, V domains shown, IgG1null (L234A/L235A/G237A); also called Clone VH1.8/VL1.1) VH: QVQLVQSGAEVKKPGASVKVSCKASGYTFTNYAMHWVRQAPGQRLEWMGTIYPGNDDTKYNQKFQGRVTITADTSASTAYMELSSLRSEDTAVYYCARGGFRAMDYWGQGTLVTVSS VL: DIVMTQSPLSLPVTPGEPASISCRSSQSLLHSNGNTYLGWYLQKPGQSPQLLIYKGSNRFSGVPDRFSGSGSGTDFTLKISRVEAEDVGVYYCFQASHVPYTFGQGTKLEIK", "resultType": "IC50", "resultValue": "0.459 µg/mL"}
{"binder": "VH1.8/VL1.3, human IgG1null (antibody, V domains shown, IgG1null; also called Clone VH1.8/VL1.3) VH: QVQLVQSGAEVKKPGASVKVSCKASGYTFTNYAMHWVRQAPGQRLEWMGTIYPGNDDTKYNQKFQGRVTITADTSASTAYMELSSLRSEDTAVYYCARGGFRAMDYWGQGTLVTVSS VL: DIVMTQSPLSLPVTPGEPASISCRSSQSLLHSNANTYLGWYLQKPGQSPQLLIYKGSNRFSGVPDRFSGSGSGTDFTLKISRVEAEDVGVYYCFQASQVPYTFGQGTKLEIK", "resultType": "IC50", "resultValue": "0.928 µg/mL"}
{"binder": "VH1.7/VL1.4, human IgG1null (antibody, V domains shown, VH assembled as for m35; IgG1null) VH: QVQLVQSGAEVKKPGASVKVSCKASGYTFTNYNIHWVRQAPGQRLEWMGTIYPGNDDTSYSQKFQGRVTITADTSASTAYMELSSLRSEDTAVYYCARGGFRAMDYWGQGTLVTVSS VL: DIVMTQSPLSLPVTPGEPASISCRSSQSLLHSNAYNYLGWYLQKPGQSPQLLIYKGSNRFSGVPDRFSGSGSGTDFTLKISRVEAEDVGVYYCFQASQVPYTFGQGTKLEIK", "resultType": "IC50", "resultValue": "22.6 µg/mL"}
{"binder": "VH1.6/VL1.6, human IgG1null (antibody, V domains shown, VH assembled as for m35; IgG1null) VH: QVQLVQSGAEVKKPGASVKVSCKASGYTFTNYAMHWVRQAPGQRLEWMGTIYPGNDDTSYSQKFQGRVTITADTSASTAYMELSSLRSEDTAVYYCARGGYRAEDYWGQGTLVTVSS VL: DIVMTQSPLSLPVTPGEPASISCRSSQSLLHSNANTYLGWYLQKPGQSPQLLIYKGSNRFSGVPDRFSGSGSGTDFTLKISRVEAEDVGVYYCFQASHVPYTFGQGTKLEIK", "resultType": "IC50", "resultValue": "14 µg/mL"}
